Emax reference
Target Or Test System: cloned human 5-HT1A receptors (Homo sapiens)
Construct: expressed in transfected cells
Sequence (P08908 1-422): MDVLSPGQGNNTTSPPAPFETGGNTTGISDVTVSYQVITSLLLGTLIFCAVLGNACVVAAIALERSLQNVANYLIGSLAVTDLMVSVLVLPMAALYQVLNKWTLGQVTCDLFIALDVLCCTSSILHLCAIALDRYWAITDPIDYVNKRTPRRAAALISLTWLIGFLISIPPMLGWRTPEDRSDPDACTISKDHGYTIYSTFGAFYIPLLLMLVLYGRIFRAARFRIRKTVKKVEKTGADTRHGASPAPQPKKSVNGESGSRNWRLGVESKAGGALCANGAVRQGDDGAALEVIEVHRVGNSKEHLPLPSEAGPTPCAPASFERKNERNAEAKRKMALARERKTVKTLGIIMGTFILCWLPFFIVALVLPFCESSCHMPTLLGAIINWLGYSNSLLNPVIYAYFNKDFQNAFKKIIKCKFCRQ
Protocol Text: 35S-GTPγS binding assay, 5-HT1A function
Assay type: biochemical
Assay Context: maximum inhibitory effect, in brackets after IC50; read-out: 5-HT1A Function GTPγS (Imax)
Measured Endpoint: Emax (%)

Compound | Quantitative Readout
CNC(=O)c1ccc(F)c2c1CC(N(CCc1c[nH]c3ccc(F)cc13)C1CCC1)CO2 (stereo not drawn) [Compound 87] | 100
CNC(=O)c1ccc(F)c2c1CC(N(CCCc1c[nH]c3ccc(F)cc13)C1CCC1)CO2 (stereo not drawn) [Compound 59] | 100
COc1cccc2c1CC(N(CCCc1c[nH]c3ccc(F)cc13)C1CCC1)CO2 (stereo not drawn) [Compound 34] | 76

* * *

Target Or Test System: serotonin transporter (Rattus norvegicus, UniProt P31652)
Construct: displace ^3H-paroxetine from male rat cortical membranes; from tissue; host or cells: male rat cortical membranes
Sequence (P31652 whole entry): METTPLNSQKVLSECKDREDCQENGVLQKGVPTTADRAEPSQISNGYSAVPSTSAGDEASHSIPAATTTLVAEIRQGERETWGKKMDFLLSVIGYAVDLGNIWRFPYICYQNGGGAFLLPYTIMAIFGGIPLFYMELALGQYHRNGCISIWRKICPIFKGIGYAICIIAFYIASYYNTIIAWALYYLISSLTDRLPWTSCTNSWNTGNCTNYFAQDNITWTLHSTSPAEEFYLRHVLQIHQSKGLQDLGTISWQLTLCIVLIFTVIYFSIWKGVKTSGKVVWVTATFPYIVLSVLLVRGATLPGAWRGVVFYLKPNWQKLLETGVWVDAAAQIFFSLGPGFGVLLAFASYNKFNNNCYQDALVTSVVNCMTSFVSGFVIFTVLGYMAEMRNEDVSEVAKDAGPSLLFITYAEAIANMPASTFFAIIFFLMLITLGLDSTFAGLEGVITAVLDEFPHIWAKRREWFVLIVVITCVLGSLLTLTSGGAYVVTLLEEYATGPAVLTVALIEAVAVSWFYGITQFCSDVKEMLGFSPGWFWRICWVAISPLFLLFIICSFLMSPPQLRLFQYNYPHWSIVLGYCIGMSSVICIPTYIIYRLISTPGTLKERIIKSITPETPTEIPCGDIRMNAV
Protocol Text: 5-HT transporter affinity: displacement of 3H-paroxetine from male rat cortical membranes
Format: binding
Assay Context: displacement of 3H-paroxetine; male rat cortical membranes; read-out: 5-HT Transporter Affinity Ki
Ki reference
Measured Endpoint: Ki (nM)

Compound | Unit String | Quantitative Readout
CCCN(CCCc1c[nH]c2ccc(F)cc12)[C@H]1CCc2cccc(OC)c2C1 [Compound 47a] | nM | 0.83
CNC(=O)c1ccc(F)c2c1C[C@@H](N(CCCCc1c[nH]c3ccc(F)cc13)C1CCC1)CO2 [Compound 145b] | nM | 8.63
NC(=O)c1ccc(F)c2c1CC(N(CCCc1c[nH]c3ccc(F)cc13)C1CCC1)CO2 (centres unmarked) [Compound 4] | nM | 2.6
NC(=O)c1ccc(F)c2c1CC(N(CCCCc1c[nH]c3ccc(F)cc13)C1CCC1)CO2 (centres unmarked) [Compound 83] | nM | 14.6
COC(=O)c1cccc2c1CC(N(CCCc1c[nH]c3c(F)cc(F)cc13)C1CCC1)CO2 (centres unmarked) [Compound 136] | nM | 203
CCCN(CCCCc1c[nH]c2ccc(F)cc12)C1COc2c(F)ccc(C(N)=O)c2C1 (centres unmarked) [Compound 81] | nM | 6.15
CCN(CCCc1c[nH]c2ccc(Cl)cc12)C1COc2c(F)ccc(C(N)=O)c2C1 (centres unmarked) [Compound 115] | nM | 21.4
NC(=O)c1ccc(F)c2c1CC(N(CCCCn1ccc3c(F)cccc31)CC1CC1)CO2 (centres unmarked) [Compound 203] | nM | 161

The values you see were collected from patent US20050032873A1.
